- Protocol description: reversal of MRP1-mediated doxorubicin resistance, pilot screen, H69AR cells, doxorubicin co-treatment (AID 601)
- Condition info: H69AR cells + 2 uM doxorubicin, CellTiter-Glo, 72 h; at 10 µM; stronger effect = higher value
Task for the reader: assign each of the following molecules its reported differential viability (reversal).
Quick note: give the figure in %, leave out the unit.

If you can, please state the reported differential viability (reversal) value of `CCCCOc1ccc(OCCCN2CCOCC2)cc1` . 7.79

If you can, please state the reported differential viability (reversal) value of O=C(C1CCC(N2C(=O)C3CC=CCC3C2=O)CC1)N1CCCCC1 (stereo unspecified) . 8.11

If you can, please state the reported differential viability (reversal) value of COC(=O)c1ccccc1NC(=O)C1CCCCC1C(=O)O (stereo unspecified) . -1.56

If you can, please state the reported differential viability (reversal) value of OC(CCN1CCCCC1)(c1ccccc1)C1CCCCC1 (stereo unspecified) . -0.69

If you can, please state the reported differential viability (reversal) value of `CC(=O)c1ccc(Oc2cc(C)nc(-n3nc(C)cc3C)n2)cc1` . -36.8

If you can, please state the reported differential viability (reversal) value of `O=C(CCN1C(=O)COc2ccccc21)NCCN1CCN(c2cccc(Cl)c2)CC1` . -11.3

If you can, please state the reported differential viability (reversal) value of `CC1(C)OC(=O)C(=CNc2ccccc2)C(=O)O1` . 10.9

If you can, please state the reported differential viability (reversal) value of `Cc1ccc(-c2nn(-c3ccccc3)cc2CN(Cc2ccccc2)C(=O)CCC(=O)O)o1` . 8.97

If you can, please state the reported differential viability (reversal) value of `Cc1csc2ncc(C(=O)N3CCc4ccccc43)c(=O)n12` . -3.54

If you can, please state the reported differential viability (reversal) value of O=C1CN(C(=O)CN2CCCC2)C(c2ccccc2)c2cc(Br)ccc2N1 (stereo unspecified) . 4.63

If you can, please state the reported differential viability (reversal) value of CN1CCCN=C1COC(=O)C(O)(c1ccccc1)C1CCCCC1 (stereo unspecified) . 3.15

###

- Protocol description: RAM signaling pathway blockade in yeast – S. cerevisiae, Pdr1DBD-CYC8 efflux-inhibited sensitized strain, primary screen (AID 1298);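 also: 0% = DMSO untreated cells without growth and 100% = 10 µM 1-NA-PP1 full growth; higher means more yeast growth rescued from 5-FOA killing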
- Condition info: S. cerevisiae cbk1-as DSE1-URA3 strain, 5-FOA growth OD615, 2 d; at 50 µM; stronger effect = higher value
Property label: RAM network inhibition (%)
Quick note: give the figure in %, leave out the unit.

If you can, please state the reported RAM network inhibition value of COc1ccc(Cl)cc1C(=O)NCC(c1ccco1)N1CCCC1 (centres undefined) . 10.1

If you can, please state the reported RAM network inhibition value of `CCCCNc1cc(=O)n(C)c(=O)[nH]1` . 2.98

If you can, please state the reported RAM network inhibition value of Cc1ccc2c(c1)c(C)c(C)n2CC(O)Cn1nnc2ccccc21 (centres undefined) . 2.28

If you can, please state the reported RAM network inhibition value of `CCOc1ccc(Nc2cc(C)nc3nc(C)nn23)cc1` . 2.62

If you can, please state the reported RAM network inhibition value of `CCSc1nnc(NC(=O)CCc2ccccc2)s1` . 3.66

If you can, please state the reported RAM network inhibition value of `COc1ccc(CNC(=O)c2cnc3scc(C)n3c2=O)cc1` . 11.9

If you can, please state the reported RAM network inhibition value of `COc1ccc(C/C(O)=C(\C#N)c2nc3ccccc3[nH]2)cc1OC` . 3.13

If you can, please state the reported RAM network inhibition value of `Cc1cc(OCC(=O)Nc2cc(-c3nn4c(C)nnc4s3)ccc2C)ccc1Cl` . 6.32

If you can, please state the reported RAM network inhibition value of `CN(C)/C=C1/Sc2ccccc2C1=O` . -0.73

If you can, please state the reported RAM network inhibition value of Nc1ncnc2c1ncn2C1CCC(CO)C(O)C1 (centres undefined) . 3.68

If you can, please state the reported RAM network inhibition value of `Cc1cc(NC(=O)CN2CCN(c3ncccn3)CC2)no1` . 3.12

If you can, please state the reported RAM network inhibition value of Cc1c(NC(=O)NCCN2C(=O)C3C4C=CC(C4)C3C2=O)c(=O)n(-c2ccccc2)n1C (centres undefined) . 4.55

If you can, please state the reported RAM network inhibition value of `CC1CCN(C(=O)CSc2nc(N)c3c4c(sc3n2)CN(C)CC4)CC1` . 2.24

If you can, please state the reported RAM network inhibition value of `CCC(=O)Nc1cccc(NC(=O)c2cc3ccccc3o2)c1` . 5.21

If you can, please state the reported RAM network inhibition value of `Cc1ccc(CN2C(=O)/C(=C3\SC(N4CCOCC4)=NC3=O)c3cc(Br)ccc32)cc1` . 9.54

If you can, please state the reported RAM network inhibition value of COc1ccc(OC)c(-c2nnc(NC(=O)C(C)Sc3nncn3C)s2)c1 (centres undefined) . 0.37

If you can, please state the reported RAM network inhibition value of `O=c1[nH]c(SCc2ccccc2Cl)nc2c1CCC2` . 1.7

If you can, please state the reported RAM network inhibition value of `COc1ccc(-c2cn3c(C)c(C(=O)N4CCN(c5ccc(OC)cc5)CC4)sc3n2)cc1` . 3.17

If you can, please state the reported RAM network inhibition value of `COc1nc(NC(C)(C)C)nc(Oc2ccc(=O)n(C)n2)n1` . 5.11

If you can, please state the reported RAM network inhibition value of COc1ccc(OC(C)C(=O)Nc2cccc(OC)c2)cc1 (centres undefined) . -0.52

If you can, please state the reported RAM network inhibition value of COc1ccc(N2CCN(CCNC(=O)c3ccc(NC(=O)C4CCCO4)cc3)CC2)cc1 (centres undefined) . 7.42

If you can, please state the reported RAM network inhibition value of Cc1cccc(NC(=O)NCCN2C(=O)C3C4C=CC(C4)C3C2=O)c1 (centres undefined) . 0.37

If you can, please state the reported RAM network inhibition value of `COc1ccccc1C(=O)Nc1ccc2c(c1)OCO2` . -1.49

If you can, please state the reported RAM network inhibition value of `CCc1nnc(NC(=O)C2CCCCC2)s1` . 1.04

###

- Protocol description: reducers of endogenous Her2 protein level, primary screen, SKBR3 breast tumor cells, AlphaScreen, ATP viability (AID 461);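 also: percent of carrier control wells set as 100% viability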
- Condition info: 18-24 h, measured here: SKBR3 viability, ATP luminescence, at 10 µM
Property label: viability (%)
Quick note: give the figure in %, leave out the unit.

If you can, please state the reported viability value of `Cc1cccc(OCC(=O)N2CCC(N3CCCCCC3)CC2)c1` . 95.5

If you can, please state the reported viability value of `CC(C)(C)n1ncc2c(=O)n(CC(=O)NCc3ccco3)cnc21` . 91.5

If you can, please state the reported viability value of `CN(C)C(=O)CSc1nnc([C@H](Cc2c[nH]c3ccccc23)NC(=O)OC(C)(C)C)o1` . 104

If you can, please state the reported viability value of `Cc1nc(N2CCc3ccccc32)[nH]c(=O)c1CCC(C)C` . 87.5

If you can, please state the reported viability value of CC(C)COc1nc2ccccc2nc1C(C#N)C(=O)NC1CCCCC1 (stereo not given) . 99

If you can, please state the reported viability value of CN(C)CCOC(c1ccccc1)c1ccccc1 (tested in a mixture with another compound) . 93.5

If you can, please state the reported viability value of `O=C(COC(=O)c1ccc(Br)o1)Nc1ccc(S(=O)(=O)N2CCCC2)cc1` . 80

If you can, please state the reported viability value of `Nc1cc(-c2ccc(Br)cc2)nn1S(=O)(=O)c1ccccc1` . 90

If you can, please state the reported viability value of `COC(=O)CCC(=O)Nc1cccc(Br)c1` . 128

If you can, please state the reported viability value of COc1ccc(C2CC(C(F)(F)F)n3ncc(C(=O)NCc4cccnc4)c3N2)cc1OC (stereo not given) . 86.5

If you can, please state the reported viability value of Cc1ccc(-c2[nH]nc3c2C(c2ccc(OC(=O)N4CCOCC4)cc2)C(C#N)=C(N)O3)cc1 (stereo not given) . 89

If you can, please state the reported viability value of `COc1ccc(-n2nc(C(=O)Nc3ccc4c(c3)OCO4)c3c4ccccc4n(C)c3c2=O)cc1` . 99

If you can, please state the reported viability value of `Cc1nnc2sc(-c3cccc(NC(=O)c4cccnc4)c3)nn12` . 87.5

If you can, please state the reported viability value of `O=C(c1cccnc1)N1CCc2ccccc21` . 74

If you can, please state the reported viability value of `Cc1cc(C)n(S(=O)(=O)Cc2ccccc2)n1` . 102

If you can, please state the reported viability value of `CCN(CC)c1ccc(NC(=O)c2cncc(Br)c2)cc1` . 97.5

If you can, please state the reported viability value of `O=C(CSc1nnc(-c2ccc(Br)o2)n1Cc1ccccc1)c1ccccc1F` . 81.5

If you can, please state the reported viability value of `COc1cc(OC)c(C2N(C)c3ccccc3N2C)cc1OC` . 91.5

If you can, please state the reported viability value of COc1ccc(N2CCC(CNS(=O)(=O)c3cccc(C(F)(F)F)c3)C2)cc1 (stereo not given) . 98

If you can, please state the reported viability value of `CCC(=O)O[C@@H]1CC(=O)O[C@H](C)CC=CC=C[C@@H](O)[C@H](C)C[C@H](CC=O)[C@H](O[C@H]2O[C@H](C)[C@@H](O[C@H]3C[C@@](C)(O)[C@@H](OC(=O)CC)[C@H](C)O3)[C@H](N(C)C)[C@H]2O)[C@H]1OC` . 93.5

meta.source: PubChem BioAssay
